The measured values listed here are drawn from paper PMC10313671.

- assayRemarks: Peptide hydrogel formation, vial-inverting method
- Assay type: physicochemical
- assayContext: vial-inverting method; representative hydrogels pH between 7.0 to 7.5
Where a SMILES comes first, the peptide text is derived from it.
measurementType: hydrogel formation (in words)

Record excerpt, results attached:
CC(C)[C@H](NC(=O)[C@@H](N)Cc1c[nH]c2ccccc12)C(=O)N[C@@H](Cc1ccccc1)C(=O)N[C@@H](Cc1ccc(O)cc1)C(=O)O [WVFY] (H-WVFY-OH)	hydrogels
CC[C@H](C)[C@H](NC(=O)[C@@H](NC(=O)[C@@H](N)Cc1ccccc1)C(C)C)C(=O)N[C@@H](Cc1ccc(O)cc1)C(=O)O [FVIY] (H-FVIY-OH)	hydrogels
N[C@@H](Cc1c[nH]c2ccccc12)C(=O)N1CCC[C@H]1C(=O)N[C@@H](Cc1ccc(O)cc1)C(=O)N[C@@H](Cc1ccc(O)cc1)C(=O)O [WPYY] (H-WPYY-OH)	cannot
NCCCC[C@H](NC(=O)[C@@H](N)Cc1c[nH]c2ccccc12)C(=O)N[C@@H](Cc1ccccc1)C(=O)N[C@@H](Cc1ccccc1)C(=O)O [WKFF] (H-WKFF-OH)	hydrogels

Query CC[C@H](C)[C@H](N)C(=O)N[C@@H](CCSC)C(=O)N[C@H](C(=O)N[C@H](C(=O)O)C(C)C)C(C)C [IMVV] (H-IMVV-OH) yields hydrogel formation (in words) of can form hydrogel

Query CC[C@H](C)[C@H](NC(=O)[C@@H](NC(=O)[C@@H](N)Cc1c[nH]c2ccccc12)[C@@H](C)O)C(=O)N[C@@H](Cc1ccccc1)C(=O)O [WTIF] (H-WTIF-OH) yields hydrogel formation (in words) of hydrogels

Query N[C@@H](Cc1c[nH]c2ccccc12)C(=O)N[C@@H](CCC(=O)O)C(=O)N[C@@H](Cc1ccccc1)C(=O)N[C@@H](Cc1ccccc1)C(=O)O [WEFF] (H-WEFF-OH) yields hydrogel formation (in words) of hydrogels

Query CC[C@H](C)[C@H](N)C(=O)N[C@@H](Cc1ccccc1)C(=O)N[C@@H](Cc1ccc(O)cc1)C(=O)N[C@H](C(=O)O)[C@@H](C)O [IFYT] (H-IFYT-OH) yields hydrogel formation (in words) of hydrogels

Query N[C@@H](Cc1c[nH]c2ccccc12)C(=O)N[C@@H](Cc1c[nH]c2ccccc12)C(=O)N[C@@H](CS)C(=O)N1CCC[C@H]1C(=O)O [WWCP] (H-WWCP-OH) yields hydrogel formation (in words) of cannot

Query CC[C@H](C)[C@H](NC(=O)[C@@H](NC(=O)[C@@H](NC(=O)[C@@H](N)Cc1c[nH]c2ccccc12)C(C)C)[C@@H](C)CC)C(=O)O [WVII] (H-WVII-OH) yields hydrogel formation (in words) of can form hydrogel

----------
- assayRemarks: Peptide hydrogel formation, vial-inverting method
- Type: physicochemical
- assayContext: concentration at which the state was recorded: lowest of 30, 60, 90, 120 mM that gave a gel; 120 mM for non-gelating peptides
Where a SMILES comes first, the peptide text is derived from it.
measurementType: Concentration (µM)
Express the result in µM but write the number alone.

Record excerpt, results attached:
CC[C@H](C)[C@H](NC(=O)[C@H](CC(C)C)NC(=O)[C@@H](NC(=O)[C@@H](N)C(C)C)[C@@H](C)CC)C(=O)O [VILI] (H-VILI-OH)	60000
CC[C@H](C)[C@H](NC(=O)[C@@H](NC(=O)[C@@H](N)CC(C)C)C(C)C)C(=O)N[C@@H](Cc1ccc(O)cc1)C(=O)O [LVIY] (H-LVIY-OH)	120000

Alright, here's another compound for you.
Query CSCC[C@H](NC(=O)[C@@H](N)CCSC)C(=O)N[C@@H](Cc1ccc(O)cc1)C(=O)N[C@@H](Cc1ccc(O)cc1)C(=O)O [MMYY] (H-MMYY-OH) yields Concentration of 120000
